Exercise: state measured viability, T/C for each of the compounds provided.
# Test system: SK-MEL-2 multi-cell spheroids, viability
# EXPERIMENT NOTES: Anticancer human tumor SK-MEL-2 cell line growth inhibition [TAK];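 further: spheroids exposed to drugs for seven days before readout; percent of DMSO vehicle control luminescence so 100% = untreated viability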
# CONDITION NOTES: second compound 30 µM; first compound 0.1 µM; hits give low values
# Experimental: Combinatorial screen of targeted agents with TAK-243 and ipatasertib in multi-cell type tumor spheroids […] Compounds. […] If the clinical Cmax for an agent had not been determined, the highest concentration tested was 10 microM. NCI60 Cell Culture. […] The optimal seeding densities for each of the cell lines at each time point assessed were determined prior to performing the concentration response studies. […]

So, COc1c(OCCCN2CCOCC2)ccc2c3n(c(=NC(=O)c4cnc(N)nc4)nc12)CCN3 + CC(C)NCC(C(=O)N1CCN(c2ncnc3c2C(C)CC3O)CC1)c1ccc(Cl)cc1 ? Its viability, T/C was 28.8%

So, CC(C)n1nc(-c2ccc3oc(N)nc3c2)c2c(N)ncnc21 + CC(C)NCC(C(=O)N1CCN(c2ncnc3c2C(C)CC3O)CC1)c1ccc(Cl)cc1 ? Its viability, T/C was 9.08%

So, COC1CC2CCC(C)C(O)(O2)C(=O)C(=O)N2CCCCC2C(=O)OC(C(C)CC2CCC(OCCO)C(OC)C2)CC(=O)C(C)C=C(C)C(O)C(OC)C(=O)C(C)CC(C)C=CC=CC=C1C (stereo unspecified) + CC(C)NCC(C(=O)N1CCN(c2ncnc3c2C(C)CC3O)CC1)c1ccc(Cl)cc1 ? Its viability, T/C was 17.9%

So, CC(C)(C)c1nc(-c2cccc(NS(=O)(=O)c3c(F)cccc3F)c2F)c(-c2ccnc(N)n2)s1 + CC(C)NCC(C(=O)N1CCN(c2ncnc3c2C(C)CC3O)CC1)c1ccc(Cl)cc1 ? Its viability, T/C was 73.8%

So, Cc1nc(NC(=O)N2CCCC2C(N)=O)sc1-c1ccnc(C(C)(C)C(F)(F)F)c1 (stereo unspecified) + CC(C)NCC(C(=O)N1CCN(c2ncnc3c2C(C)CC3O)CC1)c1ccc(Cl)cc1 ? Its viability, T/C was 55.8%

So, CC(C)CC(NC(=O)CNC(=O)c1cc(Cl)ccc1Cl)B1OC(=O)CC(CC(=O)O)(C(=O)O)O1 (stereo unspecified) + CC(C)NCC(C(=O)N1CCN(c2ncnc3c2C(C)CC3O)CC1)c1ccc(Cl)cc1 ? Its viability, T/C was 4.44%
